- METHOD: Plasma concentration in athymic mouse plasma xenografted with human MCF7 cells at 100 mg/kg, po after 1 hr
- Assay type: ADME, organism-based
- Set-up: dose 100 mg/kg, route oral

{"CHEMICAL_STRUCTURE": "Cc1c(C(=O)N2CCOc3ccc(-c4ccc(N)nc4)cc3C2)ccc(S(C)(=O)=O)c1F", "concentration at 1 h (µM)": 34.4}

###

- METHOD: Metabolic stability in monkey liver microsomes after 30 mins
- Assay type: ADME, Macaca mulatta, Microsome
- ASSAY_SETUP: rhesus monkey, read-out: Stability
ATTRIBUTE_MEASURED: remaining at 0.5 h

{"CHEMICAL_STRUCTURE": "Cc1c(C(=O)N2CCOc3ccc(-c4ccc(N)nc4)cc3C2)ccc(S(C)(=O)=O)c1F", "ATTRIBUTE_MEASURED": "remaining at 0.5 h", "REPORTED_MEASUREMENT": "65%"}

###

- METHOD: AUC (0 to infinity) in CD rat at 3 mg/kg, iv
- Format: ADME, organism-based
- Design: time infinity, dose 3 mg/kg, route intravenous
- ASSAY_SETUP: plasma

{"CHEMICAL_STRUCTURE": "Cc1c(C(=O)N2CCOc3ccc(-c4ccc(N)nc4)cc3C2)ccc(S(C)(=O)=O)c1F", "AUC(0-inf), µM·h": 3.72}

###

- MEASURED_TARGET: Cytochrome P450 2C8 (Homo sapiens)
- Sequence (P10632 whole entry): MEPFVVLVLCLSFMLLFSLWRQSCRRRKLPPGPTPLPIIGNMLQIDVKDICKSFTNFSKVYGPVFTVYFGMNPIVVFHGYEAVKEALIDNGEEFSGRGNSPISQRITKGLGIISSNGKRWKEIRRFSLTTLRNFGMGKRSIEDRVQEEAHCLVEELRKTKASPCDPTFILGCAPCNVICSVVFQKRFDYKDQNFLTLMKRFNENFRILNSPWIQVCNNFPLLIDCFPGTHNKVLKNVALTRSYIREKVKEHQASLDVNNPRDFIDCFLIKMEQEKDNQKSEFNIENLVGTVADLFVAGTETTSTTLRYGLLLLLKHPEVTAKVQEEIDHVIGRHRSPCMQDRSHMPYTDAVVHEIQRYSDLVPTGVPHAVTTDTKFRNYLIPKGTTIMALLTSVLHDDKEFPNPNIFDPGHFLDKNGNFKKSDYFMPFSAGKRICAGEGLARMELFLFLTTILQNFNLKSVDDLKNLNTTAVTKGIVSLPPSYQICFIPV
- METHOD: Inhibition of CYP2C8 (unknown origin)
- Assay type: ADME
Each entry below carries its reported INH.
ATTRIBUTE_MEASURED: INH (µM)

{"CHEMICAL_STRUCTURE": "CCc1c(C(=O)N2CCOc3ccc(-c4ccc5nc[nH]c5c4)cc3C2)ccc(S(C)(=O)=O)c1F", "ATTRIBUTE_MEASURED": "INH", "SIGN_QUALIFIER": "=", "REPORTED_MEASUREMENT": 3.1}
{"CHEMICAL_STRUCTURE": "Cc1c(C(=O)N2CCOc3ccc(-c4ccc(N)nc4)cc3C2)ccc(S(C)(=O)=O)c1F", "ATTRIBUTE_MEASURED": "INH", "SIGN_QUALIFIER": ">", "REPORTED_MEASUREMENT": 20}
{"CHEMICAL_STRUCTURE": "CS(=O)(=O)c1ccc(C(=O)N2CCOc3ccc(-c4ccc(N)nc4)cc3C2)cc1", "ATTRIBUTE_MEASURED": "INH", "SIGN_QUALIFIER": ">", "REPORTED_MEASUREMENT": 20}
{"CHEMICAL_STRUCTURE": "CCc1cc(S(C)(=O)=O)ccc1C(=O)N1CCOc2ccc(-c3ccc4nc[nH]c4c3)cc2C1", "ATTRIBUTE_MEASURED": "INH", "SIGN_QUALIFIER": "=", "REPORTED_MEASUREMENT": 5.6}
{"CHEMICAL_STRUCTURE": "CNS(=O)(=O)c1ccc(C(=O)N2CCOc3ccc(-c4ccc5nc[nH]c5c4)cc3C2)cc1", "ATTRIBUTE_MEASURED": "INH", "SIGN_QUALIFIER": "=", "REPORTED_MEASUREMENT": 1.6}
{"CHEMICAL_STRUCTURE": "CS(=O)(=O)c1ccc(C(=O)N2CCOc3ccc(-c4ccc5nc[nH]c5c4)cc3C2)cc1", "ATTRIBUTE_MEASURED": "INH", "SIGN_QUALIFIER": ">", "REPORTED_MEASUREMENT": 20}
{"CHEMICAL_STRUCTURE": "NS(=O)(=O)c1ccc(C(=O)N2CCOc3ccc(-c4ccc5nc[nH]c5c4)cc3C2)cc1", "ATTRIBUTE_MEASURED": "INH", "SIGN_QUALIFIER": "=", "REPORTED_MEASUREMENT": 13.9}
{"CHEMICAL_STRUCTURE": "Cc1c(C(=O)N2CCOc3ccc(-c4ccc5nc[nH]c5c4)cc3C2)ccc(S(C)(=O)=O)c1F", "ATTRIBUTE_MEASURED": "INH", "SIGN_QUALIFIER": "=", "REPORTED_MEASUREMENT": 3.4}
{"CHEMICAL_STRUCTURE": "Cc1cc(S(C)(=O)=O)ccc1C(=O)N1CCOc2ccc(-c3ccc4nc[nH]c4c3)cc2C1", "ATTRIBUTE_MEASURED": "INH", "SIGN_QUALIFIER": "=", "REPORTED_MEASUREMENT": 5.4}
{"CHEMICAL_STRUCTURE": "O=C(c1ccc(C(F)(F)F)cc1)N1CCOc2ccc(-c3ccc4nc[nH]c4c3)cc2C1", "ATTRIBUTE_MEASURED": "INH", "SIGN_QUALIFIER": "=", "REPORTED_MEASUREMENT": 3.6}
{"CHEMICAL_STRUCTURE": "CS(=O)(=O)c1ccc(C(=O)N2CCOc3ccc(-c4ccc5nc[nH]c5c4)cc3C2)c(Cl)c1", "ATTRIBUTE_MEASURED": "INH", "SIGN_QUALIFIER": "=", "REPORTED_MEASUREMENT": 5.4}
{"CHEMICAL_STRUCTURE": "CS(=O)(=O)c1ccc(C(=O)N2CCOc3ccc(-c4ccc5nc[nH]c5c4)cc3C2)c(Br)c1", "ATTRIBUTE_MEASURED": "INH", "SIGN_QUALIFIER": "=", "REPORTED_MEASUREMENT": 3.4}
{"CHEMICAL_STRUCTURE": "O=C(c1ccc(C(=O)C(F)(F)F)cc1)N1CCOc2ccc(-c3ccc4nc[nH]c4c3)cc2C1", "ATTRIBUTE_MEASURED": "INH", "SIGN_QUALIFIER": "=", "REPORTED_MEASUREMENT": 6.2}
{"CHEMICAL_STRUCTURE": "CCS(=O)(=O)c1ccc(C(=O)N2CCOc3ccc(-c4ccc5nc[nH]c5c4)cc3C2)cc1", "ATTRIBUTE_MEASURED": "INH", "SIGN_QUALIFIER": "=", "REPORTED_MEASUREMENT": 5}
